Tgt: T1, PVR conjugated to Histidine tag (PVR-HIS, Sino Cat. no. 10109-H08H) (Homo sapiens (Human), UniProt P15151 21-343)
T1 construct: Bought reagent; also called PVR-HIS tagged
T1 sequence: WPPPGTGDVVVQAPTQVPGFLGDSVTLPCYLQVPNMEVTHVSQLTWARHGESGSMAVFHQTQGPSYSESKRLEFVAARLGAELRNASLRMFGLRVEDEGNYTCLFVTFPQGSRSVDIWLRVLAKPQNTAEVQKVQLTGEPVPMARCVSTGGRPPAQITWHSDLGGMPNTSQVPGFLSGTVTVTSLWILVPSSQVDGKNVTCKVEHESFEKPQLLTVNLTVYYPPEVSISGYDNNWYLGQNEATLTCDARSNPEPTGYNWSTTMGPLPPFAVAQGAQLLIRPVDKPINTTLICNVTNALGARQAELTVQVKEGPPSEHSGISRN
Assay Name: SPR (Biacore T200), antibody captured on Protein A chip, PVR-HIS as analyte, 1:1 binding
Measurement Name: koff (s⁻¹)
Give the quantity in s⁻¹, number only.

>  <Binder>
VH0/Vκ0 Ser56 (antibody, V domains shown, chimeric 5B9 N56 substitution variant; also called N56S) VH: QVQLQQSGAELMKPGASVKISCKATGYTFSNYWIEWIKQRPGHGLEWIGEIFPGSGRINFNEKFKGKATFTADTSSDTTYMQLSSLTSADSAVYYCARTKIYGNSFDYWGQGTTLTVSP VL: DIMMTQSHKFMSTSVGDRVNITCKASQDVGTAVVWYQQKPGQSPKLLIYWASSRHSGVPDRFTGSGSGTDFTLTISNVQSEDLSDYFCQQYSRYPLTFGAGTKLELK

>  <Measurement Name>
koff

>  <Quantitative Result>
0.000701

$$$$
>  <Binder>
VH0/Vκ0 Pro56 (antibody, V domains shown, chimeric 5B9 N56 substitution variant; also called N56P) VH: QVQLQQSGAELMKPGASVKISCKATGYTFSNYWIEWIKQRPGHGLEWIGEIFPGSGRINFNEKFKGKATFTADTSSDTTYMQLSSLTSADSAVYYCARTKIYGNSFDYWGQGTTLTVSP VL: DIMMTQSHKFMSTSVGDRVNITCKASQDVGTAVVWYQQKPGQSPKLLIYWASSRHPGVPDRFTGSGSGTDFTLTISNVQSEDLSDYFCQQYSRYPLTFGAGTKLELK

>  <Measurement Name>
koff

>  <Quantitative Result>
0.00105

$$$$
>  <Binder>
VH0/Vκ0 Thr56 (antibody, V domains shown, chimeric 5B9 N56 substitution variant; also called N56T) VH: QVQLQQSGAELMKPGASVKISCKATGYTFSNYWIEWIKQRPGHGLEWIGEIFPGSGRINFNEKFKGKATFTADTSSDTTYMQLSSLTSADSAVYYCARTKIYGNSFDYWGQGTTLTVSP VL: DIMMTQSHKFMSTSVGDRVNITCKASQDVGTAVVWYQQKPGQSPKLLIYWASSRHTGVPDRFTGSGSGTDFTLTISNVQSEDLSDYFCQQYSRYPLTFGAGTKLELK

>  <Measurement Name>
koff

>  <Quantitative Result>
0.000688

$$$$
>  <Binder>
chimeric 5B9 N56D variant, IgG4 (S241P) (antibody, name in Kabat numbering, V domains shown, Human IgG4 (S241P) constant region) VH: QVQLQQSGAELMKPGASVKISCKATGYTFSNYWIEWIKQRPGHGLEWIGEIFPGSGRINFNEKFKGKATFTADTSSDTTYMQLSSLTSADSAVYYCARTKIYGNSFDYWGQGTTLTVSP VL: DIMMTQSHKFMSTSVGDRVNITCKASQDVGTAVVWYQQKPGQSPKLLIYWASSRHDGVPDRFTGSGSGTDFTLTISNVQSEDLSDYFCQQYSRYPLTFGAGTKLELK

>  <Measurement Name>
koff

>  <Quantitative Result>
0.000637

$$$$
>  <Binder>
chimeric 5B9 N56E variant, IgG4(S241P) N56E_VH0/VK0 (antibody, name in Kabat numbering, V domains shown, Human IgG4 (S241P) constant region; also called chimeric N56E mutated parental antibody) VH: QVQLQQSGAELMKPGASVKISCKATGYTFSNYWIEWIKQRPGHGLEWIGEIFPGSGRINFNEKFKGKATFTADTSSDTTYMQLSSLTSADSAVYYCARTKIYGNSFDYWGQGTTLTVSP VL: DIMMTQSHKFMSTSVGDRVNITCKASQDVGTAVVWYQQKPGQSPKLLIYWASSRHEGVPDRFTGSGSGTDFTLTISNVQSEDLSDYFCQQYSRYPLTFGAGTKLELK

>  <Measurement Name>
koff

>  <Quantitative Result>
0.000653

$$$$
>  <Binder>
VH0/Vκ0 Ala56 (antibody, V domains shown, chimeric 5B9 N56 substitution variant; also called N56A) VH: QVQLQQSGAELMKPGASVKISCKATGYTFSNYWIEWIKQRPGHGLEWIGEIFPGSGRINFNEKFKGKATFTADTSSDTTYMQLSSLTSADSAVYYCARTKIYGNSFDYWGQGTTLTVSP VL: DIMMTQSHKFMSTSVGDRVNITCKASQDVGTAVVWYQQKPGQSPKLLIYWASSRHAGVPDRFTGSGSGTDFTLTISNVQSEDLSDYFCQQYSRYPLTFGAGTKLELK

>  <Measurement Name>
koff

>  <Quantitative Result>
0.000701

$$$$

We next turn to a different binder, shown below.
// recorded koff for chimeric anti-PVR antibody 5B9 wild type, IgG4 (S241P), VH0/VK0 (antibody, V domains shown, Mouse/human chimeric antibody with human IgG4 (S241P) constant region; also called WT; parental N56 variant (VH0VK0)) VH: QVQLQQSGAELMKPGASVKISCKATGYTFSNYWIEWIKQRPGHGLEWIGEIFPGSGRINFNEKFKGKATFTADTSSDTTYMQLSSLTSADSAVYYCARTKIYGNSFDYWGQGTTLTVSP VL: DIMMTQSHKFMSTSVGDRVNITCKASQDVGTAVVWYQQKPGQSPKLLIYWASSRHNGVPDRFTGSGSGTDFTLTISNVQSEDLSDYFCQQYSRYPLTFGAGTKLELK : 0.000715
